# Test system: RARg:RXRa (NR concentration 270 nM, RXRa partner concentration 90 nM)
# assayName: PBM binding z-score (relative to random genomic background probes); higher = stronger binding; sequences stand for … in GC…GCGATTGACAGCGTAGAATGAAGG
observationType: PBM binding z-score

> print(dat)
                        sequencerecord   result
 1  ACAGACAGGTGAGTGAACGTAACTCAGCTGGACG  -0.0638
 2  CGAACTAGGTTAGAACAGGACAGTGAAGGATGAT    0.384
 3  TCTTGTAGATCAGCAGGTTCAGAAAGCTGGCCAA   -0.138
 4  GCGACTGGGGCAAAGTAGGTTACCATAAGGTTGG    0.662
 5  CCTGGTTGGTCAAGGTCACACACGCTATAGGTAC     4.58
 6  TGTCAAAGTTCAAAGGTAACGTACGTATCCACAC     6.34
 7  TCTGCTAGGTCAGTTGGTCAGCTATCGAGCTGCC     2.62
 8  CCGACTGGGGCATAAGGTCACCATAAGCCAGCCC     4.86
 9  ATCTCTAGGTAAAAGTACAGTGAATCCCGAGGAT    0.567
10  TCGAGTAGGTTAGGGGCATTCAGAATGGCGTCGA    0.269
11  ATATGTAGGTTAGCTGGGGTCAATCAGACTAGGC      4.3
12  ATCTCTGGGTAAGACTCAGTTCAGTGAAGAACGC    0.252
13  CGTACTAGGTCAGAACAGGACAGTGAAGGATGAT      2.5
14  TCTGCTAGGTCAGTTGGTAAGCTAACGAGCTGCC     2.35
15  CCGAGTAGGTTATGGGGCATTCGGGCAACGGTGA    0.533
16  CCGACTGGGCCAAAGGTCATTGATTCCAATGCTC     5.54
17  ATATGTAGGTTAAGGGTCATCCAGGTTGGTTCGC     5.45
18  CCACCAAGGTGAACAAGGTCGTTGATTACTATTC     2.05
19  AGAATGAGGTTGTACGTAGATCAGGGAAGAAAGT     0.15
20  AGTCAAAGTTCATTTAGGTAACGTAAGATATGCT     5.03
21  CAAACTAGGTCACAGAGGTCCAAGTCCGTGCGTA     4.67
22  AGAACGAGGGCACGCTAAGTTGATAGCAGAGTAG      2.2
23  TCGAGTCGGTTAGTCGGGGCATTCAGCCAACATA   -0.443
24  AGTCTAAGTTCAGGACGAGGTAACGTAAAGCACG     3.11
25  AATACAGGGTCACTAGGCCACAGTAGGTACGAAT     5.36
26  GCTAGTTGGTCAGTAAAAGGTCACACAGCGGTCG     5.92

---

# System: RARb:RXRa (NR concentration 270 nM, RXRa partner concentration 90 nM)
# assayName: PBM binding z-score (relative to random genomic background probes); higher = stronger binding; sequences stand for … in GC…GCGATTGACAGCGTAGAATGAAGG
observationType: PBM binding z-score

> print(dat)
                       sequencerecord  measurednumber
1  CCTACTGGGCCAAAAGTCATTGATTCCAATGCTC           0.447
2  TAGCCTAGGTCAGATCGGTCCAGTATACGCTATA            2.78
3  ACTATTAGTTGAGACGAGGGCAACCTATAGGTTG           0.936
4  ATCGAAAGGTCGACGAGGTGTGTATACACCGTTT            3.74
5  TAGCCTAGGTCATGCGGGCAAGTATAGTGTCGGC            3.83

---

# Test system: RARb homodimer (NR concentration 270 nM)
# assayName: PBM binding z-score (relative to random genomic background probes); higher = stronger binding; sequences stand for … in GC…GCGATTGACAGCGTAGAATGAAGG
Here, each record is paired with measured PBM binding z-score data.
observationType: PBM binding z-score

> print(dat)
                        sequencerecord  measurednumber
 1  CCGACTGGGACAGAAAGGTTACCATACCATCCGG            2.12
 2  CCTCGCAGGACAGAAGGTCAGAGCTGTCCGCTTT            3.34
 3  CCTACGGGGCCAAAAAGGTCATTGATGCCGATAA            4.54
 4  ATATATAGGTTATCGGGTCATTCAGTTTGCGCAT            3.49
 5  TGAATGAGGTTATATGATCAGGGAACGTTGCAAA           0.492
 6  CAAACTAGGTCAAGAGGTCAAAGTACGCTTCCCG            5.69
 7  GGAACGAAGGCATTCGAGTTGATAGCATGGCGAT          -0.976
 8  CCTCGGAGGACAACAGGAGGGCAGAGCTGCCAGA            1.42
 9  GCATATAGGTAATACAAGGTGACAGTCCGATTGT           0.679
10  TAGCCTAGGTAATGCGGGCCAGTATAGTGTCGGC          -0.521
11  GGAACGAGGGCAAGTTGTTAGCAGAGTTTGATGG            1.42
12  TTAGCAAGGTGAAAGGTCGTTGATGCACGCCTTG            2.23
13  TAGCGTAGGTCAGATCGGGCCAGTATACGCTATA            1.87
14  CCTTACGGGTCACGAGGTTATAGCCCGACGAGCG            4.11
15  CGTCAAAGTTCAACTAAGGTAGCGTAAAGCACGC            4.16
16  AGAACGAGGGCACGCTGAGTTGCTAGCAGAGTAG           0.875
17  ATCTCTAGGTAAAGTTCAATGAAAGATCGATAGA            2.76
18  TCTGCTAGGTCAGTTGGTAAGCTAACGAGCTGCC            1.95
19  AATACAGGGTCATAGTAGGCCAGAGTACGCACAG            3.26

---

Here, each record is paired with measured PBM binding z-score data.
# System: PPARa:RXRa (NR concentration 270 nM, RXRa partner concentration 90 nM)
# assayName: PBM binding z-score (relative to random genomic background probes); higher = stronger binding; sequences stand for … in GC…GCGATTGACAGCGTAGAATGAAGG
observationType: PBM binding z-score

> print(dat)
                        sequencerecord  measurednumber
 1  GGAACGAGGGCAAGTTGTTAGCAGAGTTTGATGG            1.84
 2  TCTTGTAGATCAAGGAGGTTAAGAAAGCCTGAGT            1.27
 3  CCGACTGGGGCCAAGGTTACCATACTCAGTACGA            1.91
 4  CGTCCAAGGTCAAAGGTGAGTGAAGAGATGACGG            6.66
 5  ATCTCTAGGCAAAAGTTCAGTGAATCCCGAGGAT            2.96
 6  ATTTCTAGGTAACAAGTTCAGTGAAAGAGAGGAC            2.76
 7  CACGAAAGGTCGTGCTCAGGTGAGTATACCAAAC            4.88
 8  AGAATGAGGTTACCAAAGCTCAGGGAAACGCTTG            3.46
 9  TCTTGTAGAGCAAAGGTTAAGAAAGCCGAAGCCT            4.91
10  CGGCCAAGGTCAAGGTCAGTGAAAGAGACTCGAA            6.12
11  CCAGACAGGTGAAATGTAACTCAGTCTGGTACGC           0.949
12  GCTATTAGTTGAAAGGGCAACCAAATGATTCTCG            2.45
13  TCTCGGAGGAAACGAAGGTCAGAGCTTTCCAGAG            1.72
14  TTGCCTAGGTCAGATCGGGCCAGTATACGCTATA            1.51
15  ATCTCTAGGTAAGACTCAGTTCCGTGAAGAACGC          -0.155
16  CCTCGGAGGACAACAGGCGGTCAGAGCTGCCAGA          -0.468
17  CCTTACGGGTCACGAGTTTATAGCACGACGAGCG            5.25
18  ACATACAGGTGATGAAGGTAACTCAGGCTATCAT           0.484
19  CGTCCAAGGTTAAAGGTCAGTGAAGAGATGACGG            6.28
20  TCTATTAGTTGATGGGCAACCGACGAGTCCGTTT        -0.00429
21  CGAACCAGGTCATCCAGGACAGTGAATACATTGA            4.67
